- Test system: Micrococcus luteus
- assay protocol: Antimicrobial activity against Micrococcus luteus ML01 assessed as inhibition of bacterial growth incubated for 16 to 18 hrs by broth micro dilution technique
- Assay type: functional
- cond: time 16-18 hrs
Numbered stars: 1 amine (or outer) side, 2 acyl side, 3 side chain; on linkers, the order of the positions; unused ones are H or OH. Bridge positions count the residues as written; N and C are the ends. Square brackets hold non-standard residues; d marks the D form. Peptide text beside a SMILES is read from it. I, II: the chains in the order shown. Actinocin(1to9) = Cc1c2oc3c(C)ccc(C(=O)[*:2])c3nc-2c(C(=O)[*:1])c(N)c1=O; NMeV = CN[C@H](C(=O)O)C(C)C; Sar = CNCC(=O)O
Can you tell me MIC for the items I'm about to list?

In the examples that follow, each entry is paired with its recorded MIC.
molecule	MIC
CC(C)[C@H]1C(=O)O[C@H](C)[C@H](NC(=O)c2c3nc4c(C(=O)N[C@@H]5C(=O)N[C@H](C(C)C)C(=O)N6CCC[C@H]6C(=O)N(C)CC(=O)N(C)[C@@H](C(C)C)C(=O)O[C@@H]5C)ccc(I)c4oc-3c(I)c(=O)c2N)C(=O)N[C@H](C(C)C)C(=O)N2CCC[C@H]2C(=O)N(C)CC(=O)N1C	< 0.06 µg/mL
Cc1c2oc3c(C)ccc(C(=O)N[C@@H]4C(=O)N[C@H](C(C)C)C(=O)N5CCC[C@H]5C(=O)N(C)CC(=O)N(C)[C@@H](C(C)C)C(=O)O[C@@H]4C)c3nc-2c(C(=O)N[C@@H]2C(=O)N[C@H](C(C)C)C(=O)N3CCC[C@H]3C(=O)N(C)CC(=O)N(C)[C@@H](C(C)C)C(=O)O[C@@H]2C)c(N)c1=O [DACTINOMYCIN] (I: T[dV]P[Sar][NMeV] / II: T[dV]P[Sar][NMeV]; ester I:1-I:C, II:1-II:C; linker I:N-II:N via Actinocin(1to9))	< 0.06 µg/mL

Turning now to a further record.
Give its MIC value. Item: "CC(C)[C@H]1C(=O)O[C@H](C)[C@H](NC(=O)c2c3nc4c(C(=O)N[C@@H]5C(=O)N[C@H](C(C)C)C(=O)N6CCC[C@H]6C(=O)N(C)CC(=O)N(C)[C@@H](C(C)C)C(=O)O[C@@H]5C)ccc(Br)c4oc-3c(Br)c(=O)c2N)C(=O)N[C@H](C(C)C)C(=O)N2CCC[C@H]2C(=O)N(C)CC(=O)N1C"
< 0.06 µg/mL

src = ChEMBL document CHEMBL4828714
